# Test system: U2OS
# Method summary: drug sensitivity score (DSS) for viability; higher = more toxic; extreme values may be limits of the assay
# Test parameters: 72 h
// values below are reported drug sensitivity score
Write the value as a bare number.

The following compounds have reported results that may help.
# Compound, Target entity, drug sensitivity score
data = [
    ("NCCCC[C@@H]1NC(=O)[C@@H](Cc2c[nH]c3ccccc23)NC(=O)[C@H](c2ccccc2)NC(=O)[C@@H]2C[C@@H](OC(=O)NCCN)CN2C(=O)[C@H](Cc2ccccc2)NC(=O)[C@H](Cc2ccc(OCc3ccccc3)cc2)NC1=O [pasireotide]", "U2OS", 0),
    ("CNC(=O)c1ccc2cc([C@@]3(O)CCn4cncc43)ccc2c1", "U2OS", 0),
    ("COCCOc1cnc2ccn([C@H](C)c3nnc4c(F)cc(-c5cnn(C)c5)cn34)c(=O)c2c1", "U2OS", 0),
]

Kindly state the measured drug sensitivity score obtained for c1ccc(COCCCc2c[nH]cn2)cc1 with U2OS.
0

Kindly state the measured drug sensitivity score obtained for Cn1ccc2cc(NC(=O)Nc3cccnc3)ccc21 with U2OS.
0

Kindly state the measured drug sensitivity score obtained for Nc1ccn([C@H]2CO[C@@H](CO)S2)c(=O)n1 with U2OS.
0

Kindly state the measured drug sensitivity score obtained for Clc1cccc(Cl)c1NC1=NCCN1 with U2OS.
0

Kindly state the measured drug sensitivity score obtained for CC[C@@H](C)Nc1cc(C(=O)N[C@H]2C[C@H]3CC[C@@H](C2)N3c2ccc(C(=O)C3CC3)cn2)c(C)cc1C(N)=O with U2OS.
24.2

Kindly state the measured drug sensitivity score obtained for CN1CCC2=C(C1)C(c1ccccc1)c1ccccc12 (stereo not drawn) with U2OS.
0

Kindly state the measured drug sensitivity score obtained for Cn1c(=O)c2c(ncn2CCOC(=O)C(C)(C)Oc2ccc(Cl)cc2)n(C)c1=O [etofylline-clofibrate] with U2OS.
0

Kindly state the measured drug sensitivity score obtained for O=c1[nH]cnc2ccccc12 with U2OS.
0

Kindly state the measured drug sensitivity score obtained for Cc1[nH]cnc1-c1ccc(Cl)cc1 with U2OS.
0

Kindly state the measured drug sensitivity score obtained for CC(C)(N)c1nc(-c2ccc(OC(F)(F)F)cc2)c[nH]1 with U2OS.
0

Kindly state the measured drug sensitivity score obtained for Fc1ccc(-c2nc(-c3c(F)cccc3F)[nH]c2-c2ccncc2)cc1 with U2OS.
0

Kindly state the measured drug sensitivity score obtained for CNC(=O)c1cc(Oc2ccc(NC(=O)Nc3ccc(Cl)c(C(F)(F)F)c3)cc2)ccn1 with U2OS.
2.6

Kindly state the measured drug sensitivity score obtained for CCOC(=O)[N-]c1c[n+](N2CCOCC2)no1 with U2OS.
0

Kindly state the measured drug sensitivity score obtained for CCCCCCCCCC(=O)O[C@H]1CC[C@H]2[C@@H]3CCC4=CC(=O)CC[C@@H]4[C@H]3CC[C@]12C [Nandrolone decanoate] with U2OS.
0

Kindly state the measured drug sensitivity score obtained for Cc1nc(Nc2ncc(C(=O)Nc3c(C)cccc3Cl)s2)cc(N2CCN(CCO)CC2)n1 with U2OS.
10.3

Sourced from the supplement of paper PMC13380429
